We begin with a simple list: items and their reported IC50.
# tgt: Human immunodeficiency virus type 1 integrase (Human immunodeficiency virus 1)
# Sequence (Q7ZJM1 whole entry): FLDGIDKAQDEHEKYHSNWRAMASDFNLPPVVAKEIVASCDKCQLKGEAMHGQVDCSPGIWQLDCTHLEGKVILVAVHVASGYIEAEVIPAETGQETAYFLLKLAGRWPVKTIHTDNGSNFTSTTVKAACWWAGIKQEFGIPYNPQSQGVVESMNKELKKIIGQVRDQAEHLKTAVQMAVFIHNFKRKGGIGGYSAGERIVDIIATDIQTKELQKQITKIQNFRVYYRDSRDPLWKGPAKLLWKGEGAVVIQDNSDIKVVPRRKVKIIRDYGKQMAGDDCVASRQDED
# experiment: Inhibition of recombinant HIV1 integrase 3^-end processing and strand transfer activity after 1 hr
quantity_kind: IC50

[[record]]
compound = "Nc1ccn([C@H]2C[C@H](O)[C@@H](COP(=O)(S)OC[C@H]3O[C@@H](n4cnc5c(N)ncnc54)C[C@@H]3O)O2)c(=O)n1 (stereo partly drawn)"
quantity_kind = "IC50"
value_reported = "≥ 340 µM"

[[record]]
compound = "Nc1ccn([C@H]2C[C@H](O)[C@@H](COP(=O)(O)OC[C@H]3O[C@@H](n4cnc5c(N)ncnc54)C[C@@H]3O)O2)c(=O)n1"
quantity_kind = "IC50"
value_reported = "≥ 340 µM"

[[record]]
compound = "N=C(N)NCCCCNc1ccn([C@H]2C[C@H](OP(=O)(O)OC[C@H]3O[C@@H](n4cnc5c(N)ncnc54)C[C@@H]3O)[C@@H](CO)O2)c(=O)n1"
quantity_kind = "IC50"
value_reported = "> 340 µM"


###

# IC50 annotations
# tgt: Human immunodeficiency virus type 1 integrase (Human immunodeficiency virus 1)
# experiment: Inhibition of recombinant HIV1 integrase 3^-end processing and strand transfer activity after 1 hr
quantity_kind: IC50

[[record]]
compound = "NCCNc1ccn([C@H]2C[C@H](OP(=O)(O)OC[C@H]3O[C@@H](n4cnc5c(N)ncnc54)C[C@@H]3O)[C@@H](CO)O2)c(=O)n1"
tgt = "Human immunodeficiency virus type 1 integrase (Human immunodeficiency virus 1)"
quantity_kind = "IC50"
value_reported = "> 1000 µM"

[[record]]
compound = "NCCCCNP(=O)(OC[C@H]1O[C@@H](n2cnc3c(N)ncnc32)C[C@@H]1O)O[C@H]1C[C@H](n2ccc(N)nc2=O)O[C@@H]1CO (stereo partly specified)"
tgt = "Human immunodeficiency virus type 1 integrase (Human immunodeficiency virus 1)"
quantity_kind = "IC50"
value_reported = "≥ 340 µM"

[[record]]
compound = "Nc1ccn([C@H]2C[C@H](OP(=O)(S)OC[C@H]3O[C@@H](n4cnc5c(N)ncnc54)C[C@@H]3O)[C@@H](CO)O2)c(=O)n1 (stereo partly specified)"
tgt = "Human immunodeficiency virus type 1 integrase (Human immunodeficiency virus 1)"
quantity_kind = "IC50"
value_reported = "≥ 340 µM"

[[record]]
compound = "Nc1ccn([C@H]2C[C@H](OP(=O)(O)OC[C@H]3O[C@@H](n4cnc5c(N)ncnc54)C[C@@H]3OP(=O)(O)O)[C@@H](COP(=O)(O)OCCCCCCNCc3ccc4c5cccc6cccc(c7cccc3c74)c65)O2)c(=O)n1"
tgt = "Human immunodeficiency virus type 1 integrase (Human immunodeficiency virus 1)"
quantity_kind = "IC50"
value_reported = "1.8 µM"

[[record]]
compound = "NCCCCCCNP(=O)(O)O[C@H]1C[C@H](n2cnc3c(N)ncnc32)O[C@@H]1COP(=O)(O)O[C@H]1C[C@H](n2ccc(N)nc2=O)O[C@@H]1COP(=O)(O)O"
tgt = "Human immunodeficiency virus type 1 integrase (Human immunodeficiency virus 1)"
quantity_kind = "IC50"
value_reported = "> 100 µM"

[[record]]
compound = "NCCN(CCN)CCCSP(=O)(O)OC[C@H]1O[C@@H](n2ccc(N)nc2=O)C[C@@H]1OP(=O)(O)OC[C@H]1O[C@@H](n2cnc3c(N)ncnc32)C[C@@H]1OP(=O)(O)O"
tgt = "Human immunodeficiency virus type 1 integrase (Human immunodeficiency virus 1)"
quantity_kind = "IC50"
value_reported = "786 µM"

[[record]]
compound = "Nc1ccn([C@H]2C[C@H](OP(=O)(O)OC[C@H]3O[C@@H](n4cnc5c(N)ncnc54)C[C@@H]3OP(=O)(O)O)[C@@H](COP(=O)(O)O[C@H]3C[C@H](OCCCc4ccc5c6cccc7cccc(c8cccc4c85)c76)O[C@@H]3CO)O2)c(=O)n1"
tgt = "Human immunodeficiency virus type 1 integrase (Human immunodeficiency virus 1)"
quantity_kind = "IC50"
value_reported = "30 µM"

[[record]]
compound = "Nc1ccn([C@H]2C[C@H](OP(=O)(O)OC[C@H]3O[C@@H](n4cnc5c(N)ncnc54)C[C@@H]3OP(=O)(O)O)[C@@H](COP(=O)(O)SCCCCCC(=O)Nc3ccc(N)c4c3C(=O)c3ccccc3C4=O)O2)c(=O)n1"
tgt = "Human immunodeficiency virus type 1 integrase (Human immunodeficiency virus 1)"
quantity_kind = "IC50"
value_reported = "13.4 µM"

[[record]]
compound = "NCCCCNc1ccn([C@H]2C[C@H](OP(=O)(O)OC[C@H]3O[C@@H](n4cnc5c(N)ncnc54)C[C@@H]3O)[C@@H](CO)O2)c(=O)n1"
tgt = "Human immunodeficiency virus type 1 integrase (Human immunodeficiency virus 1)"
quantity_kind = "IC50"
value_reported = "> 1000 µM"

[[record]]
compound = "Nc1ccn([C@@H]2C[C@@H](OP(=O)(O)OC[C@@H]3O[C@H](n4cnc5c(N)ncnc54)C[C@H]3O)[C@H](CO)O2)c(=O)n1 (single isomer, unassigned)"
tgt = "Human immunodeficiency virus type 1 integrase (Human immunodeficiency virus 1)"
quantity_kind = "IC50"
value_reported = "≥ 340 µM"

[[record]]
compound = "NCCCNc1ccn([C@H]2C[C@H](OP(=O)(O)OC[C@H]3O[C@@H](n4cnc5c(N)ncnc54)C[C@@H]3O)[C@@H](CO)O2)c(=O)n1"
tgt = "Human immunodeficiency virus type 1 integrase (Human immunodeficiency virus 1)"
quantity_kind = "IC50"
value_reported = "> 1000 µM"

[[record]]
compound = "N=C(N)NCCCCNP(=O)(O[C@H]1C[C@H](n2ccc(N)nc2=O)O[C@@H]1CO)O[C@H]1C[C@H](n2cnc3c(N)ncnc32)O[C@@H]1CO (stereo partly specified)"
tgt = "Human immunodeficiency virus type 1 integrase (Human immunodeficiency virus 1)"
quantity_kind = "IC50"
value_reported = "100 µM"

[[record]]
compound = "Nc1ccn([C@H]2C[C@H](OP(=O)(O)OC[C@H]3O[C@@H](n4cnc5c(N)ncnc54)C[C@@H]3OP(=O)(O)NCCCCCCCCCCCCO)[C@@H](COP(=O)(O)O)O2)c(=O)n1"
tgt = "Human immunodeficiency virus type 1 integrase (Human immunodeficiency virus 1)"
quantity_kind = "IC50"
value_reported = "> 100 µM"

[[record]]
compound = "NCCCCCCNc1ccn([C@H]2C[C@H](OP(=O)(O)OC[C@H]3O[C@@H](n4cnc5c(N)ncnc54)C[C@@H]3O)[C@@H](CO)O2)c(=O)n1"
tgt = "Human immunodeficiency virus type 1 integrase (Human immunodeficiency virus 1)"
quantity_kind = "IC50"
value_reported = "> 340 µM"

[[record]]
compound = "COc1ccc2nc3cc(Cl)ccc3c(NCCCCCCOP(=O)(O)OC[C@H]3O[C@@H](n4ccc(N)nc4=O)C[C@@H]3OP(=O)(O)OC[C@H]3O[C@@H](n4cnc5c(N)ncnc54)C[C@@H]3OP(=O)(O)O)c2c1"
tgt = "Human immunodeficiency virus type 1 integrase (Human immunodeficiency virus 1)"
quantity_kind = "IC50"
value_reported = "13.2 µM"

[[record]]
compound = "COc1ccc2nc3cc(Cl)ccc3c(NCCCCSP(=O)(O)O[C@H]3C[C@H](n4cnc5c(N)ncnc54)O[C@@H]3COP(=O)(O)O[C@H]3C[C@H](n4ccc(N)nc4=O)O[C@@H]3COP(=O)(O)O)c2c1"
tgt = "Human immunodeficiency virus type 1 integrase (Human immunodeficiency virus 1)"
quantity_kind = "IC50"
value_reported = "> 100 µM"

[[record]]
compound = "Nc1ccn([C@H]2C[C@H](OP(=O)(O)OC[C@H]3O[C@@H](n4cnc5c(N)ncnc54)C[C@@H]3OP(=O)(O)O)[C@@H](COP(=O)(O)OCCCCCCNC(=O)c3ccc4c(c3)C(=O)c3cc(C(=O)NCCCCCCO)ccc3C4=O)O2)c(=O)n1 (stereo in doubt; 28)"
tgt = "Human immunodeficiency virus type 1 integrase (Human immunodeficiency virus 1)"
quantity_kind = "IC50"
value_reported = "21 µM"

[[record]]
compound = "N=C(N)NCCCCCNc1ccn([C@H]2C[C@H](OP(=O)(O)OC[C@H]3O[C@@H](n4cnc5c(N)ncnc54)C[C@@H]3O)[C@@H](CO)O2)c(=O)n1"
tgt = "Human immunodeficiency virus type 1 integrase (Human immunodeficiency virus 1)"
quantity_kind = "IC50"
value_reported = "> 340 µM"

[[record]]
compound = "NCCCCNP(=O)(O[C@H]1C[C@H](n2ccc(N)nc2=O)O[C@@H]1CO)O[C@H]1C[C@H](n2cnc3c(N)ncnc32)O[C@@H]1CO (stereo partly specified)"
tgt = "Human immunodeficiency virus type 1 integrase (Human immunodeficiency virus 1)"
quantity_kind = "IC50"
value_reported = "100 µM"

[[record]]
compound = "COc1ccc2nc3cc(Cl)ccc3c(NCCC[N+](C)(C)CCCSP(=O)(O)O[C@H]3C[C@H](n4cnc5c(N)ncnc54)O[C@@H]3COP(=O)([O-])O[C@H]3C[C@H](n4ccc(N)nc4=O)O[C@@H]3COP(=O)(O)O)c2c1"
tgt = "Human immunodeficiency virus type 1 integrase (Human immunodeficiency virus 1)"
quantity_kind = "IC50"
value_reported = "> 100 µM"

[[record]]
compound = "N=C(N)NCCCCCCNc1ccn([C@H]2C[C@H](OP(=O)(O)OC[C@H]3O[C@@H](n4cnc5c(N)ncnc54)C[C@@H]3O)[C@@H](CO)O2)c(=O)n1"
tgt = "Human immunodeficiency virus type 1 integrase (Human immunodeficiency virus 1)"
quantity_kind = "IC50"
value_reported = "> 340 µM"


Values from ChEMBL document CHEMBL1156247
